- target or test system: PDE4A1 (Mus musculus, UniProt O89084)
- Construct: targets used in the assays are full-length proteins (as opposed to simply the catalytic domain); expressed in transfected cells; host or cells: Schizosaccharomyces pombe, PDE gene integrated in place of cgs2
- Sequence (O89084 1-610 isoform O89084-2): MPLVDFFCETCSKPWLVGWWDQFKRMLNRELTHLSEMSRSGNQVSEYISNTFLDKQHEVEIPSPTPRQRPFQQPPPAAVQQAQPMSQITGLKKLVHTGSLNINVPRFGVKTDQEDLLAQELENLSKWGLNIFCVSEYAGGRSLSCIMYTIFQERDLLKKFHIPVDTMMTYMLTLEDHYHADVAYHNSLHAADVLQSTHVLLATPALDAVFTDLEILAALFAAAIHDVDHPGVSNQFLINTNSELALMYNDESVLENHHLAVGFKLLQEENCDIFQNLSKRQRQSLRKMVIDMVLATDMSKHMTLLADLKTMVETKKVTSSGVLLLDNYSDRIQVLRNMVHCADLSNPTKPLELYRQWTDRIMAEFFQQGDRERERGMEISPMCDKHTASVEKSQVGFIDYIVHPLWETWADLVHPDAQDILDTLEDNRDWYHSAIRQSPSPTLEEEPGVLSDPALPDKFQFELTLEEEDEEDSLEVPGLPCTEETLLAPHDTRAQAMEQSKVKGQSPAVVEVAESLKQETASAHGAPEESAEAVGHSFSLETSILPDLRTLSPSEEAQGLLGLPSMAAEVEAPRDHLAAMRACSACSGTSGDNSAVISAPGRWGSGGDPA
- experiment: 5FOA growth assay (high throughput screen, ED50) in fission yeast strain expressing PDE4A1
- Type: cell-based
- experimental setup: value marked (r); OD600 0.6; read-out: ED50 for 5FOA growth assays, PDE4A1 (r)
reported endpoint: EC50 (µM)
Numbers only, in µM.

Prompt: So what does the record say about EC50 for CCC1CCc2c(sc3ncnc(N4CCOCC4)c23)C1 (stereo not shown) ?
Response: 28
